B1: ALKBH7 (parent)
chain: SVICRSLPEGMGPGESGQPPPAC

- Variants of: B1
- Protocol: protein stability index of a GFP-peptide fusion (GPS, HEK-293T) (PSI 1-6); higher = more stable;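 note: lentivirally expressed fusions sorted by FACS into six bins by GFP to DsRed ratio, PSI derived from sequencing read proportions per bin multiplied by bin number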
- Reported conditions: c terminus: native
Attribute measured: protein stability index

input_sequence=SVICRSLPEGMGPGESGQPPMAC value_observed=1.18
input_sequence=SVIMRSLPEGMGPGESGQPPPAC value_observed=1.75
input_sequence=SVICRSLPEPMGPGESGQPPPAC value_observed=1.88
input_sequence=SVICRSLWEGMGPGESGQPPPAC value_observed=2.01
input_sequence=SVICNSLPEGMGPGESGQPPPAC value_observed=1.7
input_sequence=SVICRSLPEGMHPGESGQPPPAC value_observed=1.69
input_sequence=SVICRSLPEGMGPGESGQLPPAC value_observed=2.19
input_sequence=SVICRSLPEGMGPSESGQPPPAC value_observed=1.42
input_sequence=SVICRSLPEGMGPGASGQPPPAC value_observed=1.09
input_sequence=SVICRSLPEGMGPGESGFPPPAC value_observed=3.03

Request: Reported protein stability index, variant `SVICRSLPEGMGPGESGQPPPAT` : ____
Response: 4.52

Request: Reported protein stability index, variant `SVICRSLPEGMGPGESGQPRPAC` : ____
Response: 4.09

Request: Reported protein stability index, variant `SVICRSLPEGPGPGESGQPPPAC` : ____
Response: 1.84

Request: Reported protein stability index, variant `SVICRSLPEGMKPGESGQPPPAC` : ____
Response: 2.22

Request: Reported protein stability index, variant `SVICRSLPEGMGPIESGQPPPAC` : ____
Response: 1.24

Request: Reported protein stability index, variant `SVICRSLPETMGPGESGQPPPAC` : ____
Response: 1.03
